Experimental protocol: NCI Yeast Anticancer Drug Screen. Data for the rad50 strain (AID 155)
Measurement context: S. cerevisiae rad50 strain growth inhibition; at 11.0 µM
Compounds without any hit were thinned out: in the full panel of roughly 79,000, 15% have a hit. Calls of active or inactive are those of the source. No stated cut-off is given here; in the data, active means growth inhibition above about 70%; inactive means the rest.
Field 'call' accepts TRUE for active, FALSE for inactive

Use these answered entries as a reference point.
>>> qualitative_label("O=C(NC(=S)Nc1ccccn1)c1ccccc1")
"FALSE"
>>> qualitative_label("COc1ccc(/C=C2\\SC(=S)N(C=C3C(=O)NC(=S)NC3=O)C2=O)cc1OC")
"FALSE"
>>> qualitative_label("Cc1cc(N=C2C=CC(=[N+](C)C)C=C2)c(N)cc1N")
"FALSE"
>>> qualitative_label("Clc1c(Cl)c(Cl)c2c(nnn2C2CCCO2)c1Cl (centres undefined)")
"FALSE"
>>> qualitative_label("CCC(=O)Oc1ccc(/C=N/NC(N)=S)nc1")
"FALSE"
>>> qualitative_label("O/N=C/C1c2ccccc2-c2ccccc21")
"FALSE"

Continue with the compound presented below.
Prompt: How did this test come out for NP1(Oc2ccc(F)cc2)=NP(N)(Oc2ccc(F)cc2)=NP(Oc2ccc(F)cc2)(Oc2ccc(F)cc2)=N1 (centres undefined) ?
Response: TRUE
